measurement-target: T1, Human CD93 on cells (human CD93 expressing CHO cells; HUVEC, U937 and KG1a cells) (human, UniProt Q9NPY3 22-652)
T1 construct: whole, on cells; also called hCD93 expressing CHO cells; hCD93 CHO cells
T1 sequence (looked up): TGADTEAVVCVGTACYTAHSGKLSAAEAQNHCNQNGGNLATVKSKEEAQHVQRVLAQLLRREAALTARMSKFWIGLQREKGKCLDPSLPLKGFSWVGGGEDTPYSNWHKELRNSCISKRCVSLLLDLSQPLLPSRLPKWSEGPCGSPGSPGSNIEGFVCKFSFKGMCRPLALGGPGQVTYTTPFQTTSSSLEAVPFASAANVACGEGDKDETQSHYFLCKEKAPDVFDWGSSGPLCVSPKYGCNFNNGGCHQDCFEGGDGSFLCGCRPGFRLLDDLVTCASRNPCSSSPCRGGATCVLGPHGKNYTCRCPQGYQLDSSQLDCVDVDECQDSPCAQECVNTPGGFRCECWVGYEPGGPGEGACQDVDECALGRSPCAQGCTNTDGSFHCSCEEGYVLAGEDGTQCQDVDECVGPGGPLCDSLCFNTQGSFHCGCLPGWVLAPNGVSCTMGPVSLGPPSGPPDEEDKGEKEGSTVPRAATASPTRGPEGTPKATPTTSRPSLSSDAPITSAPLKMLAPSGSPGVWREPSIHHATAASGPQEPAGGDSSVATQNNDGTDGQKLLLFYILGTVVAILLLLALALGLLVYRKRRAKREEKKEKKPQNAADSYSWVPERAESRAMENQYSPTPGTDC
assay-explanation: flow cytometry, CD93 expressing CHO cells, antibody 10 ug/ml, FITC-A

binder | binding result
17E6 (antibody, V domains shown, Mouse hybridoma monoclonal antibody) VH: EVQLQQSGPELVKPGASVKMSCKASGYTFTSYVIHWVKQKPGQGLEWIGYINPYSDYTQYNEKFKGKATLTSDKSSSTAYMELSSLTSEDSAVYSCARRADGNPYAMDYWGQGTSVTVSS VL: DIVMTQSHKFMSTSVGDRVSTTCKASQDVSTAVVWYQQKPGQSPKLLIYSASYRYTGVPDRFTGSGSGTDFTFTITSVQAEDLAVYYCQQHYSTPFTFGSGTKLEIK | binds
16G9 (antibody, V domains shown, Mouse hybridoma monoclonal antibody) VH: EVQLQQSGPELVKPGASVKMSCKASGYTFTDYYMNWVKQSHGKSLEWIGRVNPNNGGKTYNQKFKGKATLTVDKSLSTAYMQLNSLTSEDSAVYYCARWRLRPVDYGMDYWGQGTSVTVSS VL: DIVLTQSPASLAVSLGQRATISCRASQSVSTSSYSYMHWYQQKPGQPPKLLIKYASNLESGVPARFSGSGSGTDFTLNIHPVEEEDTATYYCQHSWEIPFTFGSGTKLEIK | binds
